system: Plasmodium falciparum; assay: Screen against P. falciparum Asexual Blood Stage (ABS), at 5uM; assay type: functional, Dd2; settings: tested at 5 uM
Out of some 65,000 compounds screened, about 2,100 (3.2%) showed an effect of 50% or more. The median lay at about -52%. The entries come from a sample that favours strong results as a whole.

>  <Compound>
CCc1nc(CN2CCCN(c3nn4cc(C)nc4s3)CC2)no1

>  <Target Or System>
Plasmodium falciparum

>  <INHIBITION, %>
-69

$$$$
>  <Compound>
COc1ccccc1NC(=O)N(CCO)Cc1ccsc1

>  <Target Or System>
Plasmodium falciparum

>  <INHIBITION, %>
-19.5

$$$$
>  <Compound>
Cc1cc2c(N3CCC(N(C)CCc4cnn(C)c4)CC3)ncnc2s1

>  <Target Or System>
Plasmodium falciparum

>  <INHIBITION, %>
-30.9

$$$$
>  <Compound>
O=c1oc(-c2cccs2)nn1CC(O)c1ccc2c(c1)CCC2 (stereo unspecified)

>  <Target Or System>
Plasmodium falciparum

>  <INHIBITION, %>
-20

$$$$
>  <Compound>
CSCC(=O)NC1CCN(C(C)c2ccccc2)CC1 (stereo unspecified)

>  <Target Or System>
Plasmodium falciparum

>  <INHIBITION, %>
-27.6

$$$$
>  <Compound>
CC(c1ccccc1)N1CCC(NC(=O)CCc2ccsc2)CC1 (stereo unspecified)

>  <Target Or System>
Plasmodium falciparum

>  <INHIBITION, %>
54.8

$$$$
